Target: Estrogen Receptor (ER) in MCF-7 cells (Homo sapiens (Human))
Sequence (P03372 whole entry): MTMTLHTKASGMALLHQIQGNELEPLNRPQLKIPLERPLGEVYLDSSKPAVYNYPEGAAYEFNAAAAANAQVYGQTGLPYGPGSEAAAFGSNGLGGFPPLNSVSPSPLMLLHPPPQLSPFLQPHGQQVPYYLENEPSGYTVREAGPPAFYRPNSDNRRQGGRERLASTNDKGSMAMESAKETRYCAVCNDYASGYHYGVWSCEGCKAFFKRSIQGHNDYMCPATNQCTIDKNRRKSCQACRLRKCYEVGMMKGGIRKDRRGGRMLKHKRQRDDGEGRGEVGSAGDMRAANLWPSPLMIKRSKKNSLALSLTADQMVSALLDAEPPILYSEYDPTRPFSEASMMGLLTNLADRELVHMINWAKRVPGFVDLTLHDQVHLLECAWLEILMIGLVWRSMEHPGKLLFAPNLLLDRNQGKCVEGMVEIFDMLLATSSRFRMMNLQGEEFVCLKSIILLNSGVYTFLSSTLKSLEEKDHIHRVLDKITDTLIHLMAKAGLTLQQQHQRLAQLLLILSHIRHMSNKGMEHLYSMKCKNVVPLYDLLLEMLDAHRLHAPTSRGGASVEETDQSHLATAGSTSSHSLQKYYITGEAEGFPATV
Assay: MCF-7 ER down-regulation assay (immuno-fluorescence)
Format: cell-based
Conditions: stated where not >90%
Measurement label: % downregulation (shown in brackets) (%)

>>> experimental_value("C[C@@H]1Cc2c([nH]c3ccccc23)[C@@H](c2c(F)ccc(OCCN(C)CCCF)c2F)N1CC1(F)COC1")
79
>>> experimental_value("COc1ccc(OCCNCCCF)c(F)c1[C@@H]1c2[nH]c3ccccc3c2C[C@@H](C)N1CC1(F)CC1")
90
>>> experimental_value("C[C@@H]1Cc2c([nH]c3ccccc23)[C@@H](c2c(F)ccc(OCCN(C)CCCF)c2C(F)F)N1C[C@H](C)C(=O)O")
68
>>> experimental_value("COc1ccc(OCCNCCCF)c(F)c1[C@@H]1c2[nH]c3ccccc3c2C[C@@H](C)N1CC1(F)COC1")
83
>>> experimental_value("C[C@@H]1Cc2c([nH]c3ccccc23)[C@@H](c2c(F)ccc(OCCN(C)CCCF)c2F)N1C[C@H](C)C(=O)O")
88
>>> experimental_value("Cc1c(OCCN(C)CCCF)ccc(F)c1[C@@H]1c2[nH]c3ccccc3c2C[C@@H](C(F)(F)F)N1C[C@H](C)C(=O)O")
86
>>> experimental_value("Cc1c(OCCNCCCF)ccc(F)c1[C@@H]1c2[nH]c3ccccc3c2CC(C)(C)N1C[C@H](C)C(=O)O")
85

----------
Target: Estrogen Receptor (ER) in MCF-7 cells (Homo sapiens (Human))
Assay: MCF-7 ER down-regulation assay (immuno-fluorescence)
Type: cell-based
Details: stated where not >90%
Measurement label: % downregulation (shown in brackets) (%)

>>> experimental_value("COCc1ccc(OCCNCCCF)cc1[C@@H]1c2[nH]c3ccccc3c2C[C@@H](C)N1CC(F)(F)F")
90
>>> experimental_value("COc1ccc(OC[C@@H](C)NCCCF)cc1[C@@H]1c2[nH]c3ccccc3c2C[C@@H](C)N1CC(F)(F)CO")
81
>>> experimental_value("COc1ccc(O[C@H](C)CNCCCF)cc1[C@@H]1c2[nH]c3ccccc3c2C[C@@H](C)N1CC(F)(F)CO")
81
